- Experiment: protein stability index of a GFP-peptide fusion (GPS, HEK-293T) (PSI 1-6); higher = more stable;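 note: 24-mer peptide tiles fused after GFP, lentivirally expressed, FACS-sorted into six equal bins by GFP/DsRed ratio, decoded by Illumina sequencing, PSI is the read-weighted mean bin number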
- Test Parameters: treatment: MLN4924 1 uM, 8 h; c terminus: a fixed tail appended
Everything with protein stability index lower than 3 is criterion not met; everything else, including exactly 3, is criterion met.

The following sequences have reported results that may help.
In: Is the recorded value of protein stability index equal to or greater than 3 for this sequence? SFSEETEKKFEHFSGLLNNQLSPQ [LOXL2]
Out: criterion met

In: Dear colleague, could you confirm whether YQLADWCLHHICTNYNNVCRKFPR [RHOBTB2] has protein stability index at or above 3?
Out: criterion not met

In: Check if protein stability index >= 3 (inclusive). Item: VPISVTGIAQVKIQGQNKEMLAAA [FLOT1]
Out: criterion met

In: Form field: protein stability index at least 3? Entry: TSFFDSDEDDSTSRFSSSTEQSSA [DVL3]
Out: criterion met

In: Does FSPDFTLRNTLKSTSEDSLVKQEC [FAN1] have a reported protein stability index of at least 3?
Out: criterion met

---
In: Evaluate SKYLLEEWFQNCYARYHQAFADRD [TEKT4] : protein stability index at minimum 3?
Out: criterion not met

In: In plain terms: is recorded protein stability index at least 3 for NYCSAYESFYESTSPECASPQFEG [NEUROD6] ?
Out: criterion met

In: Is protein stability index for GTLCIGAAAFSQCEEWSFFHAYYY [KCNK9] at or above 3?
Out: criterion not met

---

The entries below are paired with their reported protein stability index.
- Experiment: protein stability index of a GFP-peptide fusion (GPS, HEK-293T) (PSI 1-6); higher = more stable
- Test Parameters: treatment: DMSO; c terminus: a fixed tail appended
// keep it numeric: no unit symbol after the value

Below are worked cases with known answers.
In: Which protein stability index value belongs to TYRRLLEDGEDFNLGDALDSSNSM [KRT18] ?
Out: 4.29

In: // protein stability index lookup, key: VTINIQDLLSCSNFAVQHRYLFEE [MATN2]
Out: 2.86

In: What value of protein stability index has been reported for the following sequence? LGPPLVRKRIHDSRVAGFNPALQL [TOR1AIP2]
Out: 3.07

In: Request the reported protein stability index associated with KGYTPLHAAASNGQINVVKHLLNL [ANKRD44]
Out: 2.67

More entries:
In: Would you kindly share the measured protein stability index for VNQDILENKESWDKILALVPETIH [PRIM1] ?
Out: 3.16

In: Would you mind telling me what protein stability index value was observed for HSTSLKVPLARSLQISEELLSRNQ [LCOR] ?
Out: 4

---

- Experiment: protein stability index of a GFP-peptide fusion (GPS, HEK-293T) (PSI 1-6); higher = more stable
- Test Parameters: treatment: DMSO; c terminus: a fixed tail appended
Readout Type: protein stability index
Write no unit; give the number alone.

In: Name the recorded protein stability index for IEKWVILEKDFSIYGGELGPMMKL [ACSBG2] .
Out: 2.56

Next:
In: Data request, read-out protein stability index, for LAPPPLPLPAAAVVHVSFPEVTSA [ZBTB22]
Out: 3.3

In: Record request: protein stability index value, item IPAEENASTSTPSSTLVRPIRSRR [FAM189A2]
Out: 5.29
